measurement-protocol: refractive index (Na D-line) (dimensionless)
reported-conditions: 323.15 K; 101.33 kPa; Liquid; Standard Abbe refractometry
recorded-endpoint: refractive index
Numbers only.

Recorded results for 2 compounds are shown here.
CCc1cccc[n+]1C.COS(=O)(=O)[O-] [2-ethyl-1-methylpyridinium methyl sulfate] | 1.51245
COS(=O)(=O)[O-].Cc1ccc[n+](C)c1 [1,3-dimethylpyridinium methyl sulfate] | 1.5062

Provide reported refractive index for each item, in the same order as listed.
1. CCOS(=O)(=O)[O-].CCc1cccc[n+]1CC [1,2-diethylpyridinium ethylsulfate]
2. COS(=O)(=O)[O-].C[n+]1ccccc1 [1-methylpyridinium methylsulfate]

1.50648
1.50629

* * *

reported-conditions: 338.15 K; 101.33 kPa; Liquid; Sing-around technique in a fixed-path interferometer
recorded-endpoint: speed of sound (m/s)
Answers are plain numbers, in m/s.

Recorded results for 3 compounds are shown here.
COS(=O)(=O)[O-].Cc1ccc[n+](C)c1 [1,3-dimethylpyridinium methyl sulfate] | 1726.9
CCOS(=O)(=O)[O-].CCc1cccc[n+]1CC [1,2-diethylpyridinium ethylsulfate] | 1644.3
CCc1cccc[n+]1C.COS(=O)(=O)[O-] [2-ethyl-1-methylpyridinium methyl sulfate] | 1758.5

// returns reported speed of sound for input COS(=O)(=O)[O-].C[n+]1ccccc1 [1-methylpyridinium methylsulfate]
1784

* * *

reported-conditions: 323.15 K; 101.33 kPa; Liquid; Vibrating tube method
Numbers after ± are expanded uncertainties.
recorded-endpoint: mass density
The answer should read as a number with its unit following.

COS(=O)(=O)[O-].Cc1ccc[n+](C)c1 [1,3-dimethylpyridinium methyl sulfate] | 1285.74 ± 1.5 kg/m3
CCc1cccc[n+]1C.COS(=O)(=O)[O-] [2-ethyl-1-methylpyridinium methyl sulfate] | 1267.6 ± 1.4 kg/m3
CCOS(=O)(=O)[O-].CCc1cccc[n+]1CC [1,2-diethylpyridinium ethylsulfate] | 1203.4 ± 1.3 kg/m3

As a next step, examine the molecule that follows.
// returns reported mass density for input COS(=O)(=O)[O-].C[n+]1ccccc1 [1-methylpyridinium methylsulfate]
1328.01 ± 1.6 kg/m3

* * *

reported-conditions: 323.15 K; 101.33 kPa; Liquid; Capillary tube (Ostwald / Ubbelohde) method
Numbers after ± are expanded uncertainties.
Task for the reader: assign each of the following compounds its reported viscosity.

COS(=O)(=O)[O-].C[n+]1ccccc1 [1-methylpyridinium methylsulfate] | 41.29 ± 2.5 mPa·s
CCOS(=O)(=O)[O-].CCc1cccc[n+]1CC [1,2-diethylpyridinium ethylsulfate] | 83.3 ± 5.2 mPa·s
COS(=O)(=O)[O-].Cc1ccc[n+](C)c1 [1,3-dimethylpyridinium methyl sulfate] | 40.86 ± 2.5 mPa·s

As a next step, examine the compound that follows.
// returns reported viscosity for input CCc1cccc[n+]1C.COS(=O)(=O)[O-] [2-ethyl-1-methylpyridinium methyl sulfate]
1012 ± 78 mPa·s

* * *

reported-conditions: 298.15 K; 101.33 kPa; Liquid; Vibrating tube method
Numbers after ± are expanded uncertainties.
recorded-endpoint: mass density

Recorded results for 3 compounds are shown here.
COS(=O)(=O)[O-].Cc1ccc[n+](C)c1 [1,3-dimethylpyridinium methyl sulfate] | 1302.51 ± 1.5 kg/m3
COS(=O)(=O)[O-].C[n+]1ccccc1 [1-methylpyridinium methylsulfate] | 1344.83 ± 1.6 kg/m3
CCc1cccc[n+]1C.COS(=O)(=O)[O-] [2-ethyl-1-methylpyridinium methyl sulfate] | 1284.7 ± 1.5 kg/m3

As a next step, examine the compound that follows.
// returns reported mass density for input CCOS(=O)(=O)[O-].CCc1cccc[n+]1CC [1,2-diethylpyridinium ethylsulfate]
1220.2 ± 1.3 kg/m3

* * *

reported-conditions: 328.15 K; 101.33 kPa; Liquid; Capillary tube (Ostwald / Ubbelohde) method
recorded-endpoint: viscosity (mPa·s)
Numbers only, in mPa·s.

COS(=O)(=O)[O-].C[n+]1ccccc1 [1-methylpyridinium methylsulfate] | 35.41
CCOS(=O)(=O)[O-].CCc1cccc[n+]1CC [1,2-diethylpyridinium ethylsulfate] | 67.2
COS(=O)(=O)[O-].Cc1ccc[n+](C)c1 [1,3-dimethylpyridinium methyl sulfate] | 34.19

// returns reported viscosity for input CCc1cccc[n+]1C.COS(=O)(=O)[O-] [2-ethyl-1-methylpyridinium methyl sulfate]
802

* * *

Task for the reader: assign each of the following molecules its reported refractive index.
measurement-protocol: refractive index (Na D-line) (dimensionless)
reported-conditions: 313.15 K; 101.33 kPa; Liquid; Standard Abbe refractometry
One number for each entry.

COS(=O)(=O)[O-].C[n+]1ccccc1 [1-methylpyridinium methylsulfate] | 1.50895
COS(=O)(=O)[O-].Cc1ccc[n+](C)c1 [1,3-dimethylpyridinium methyl sulfate] | 1.50911
CCc1cccc[n+]1C.COS(=O)(=O)[O-] [2-ethyl-1-methylpyridinium methyl sulfate] | 1.51508

As a next step, examine the molecule that follows.
// returns reported refractive index for input CCOS(=O)(=O)[O-].CCc1cccc[n+]1CC [1,2-diethylpyridinium ethylsulfate]
1.5092

* * *

measurement-protocol: refractive index (Na D-line) (dimensionless)
reported-conditions: 293.15 K; 101.33 kPa; Liquid; Standard Abbe refractometry
Task for the reader: assign each of the following compounds its reported refractive index.
Answers are plain numbers.

Recorded results for 3 compounds are shown here.
COS(=O)(=O)[O-].Cc1ccc[n+](C)c1 [1,3-dimethylpyridinium methyl sulfate] | 1.5147
CCc1cccc[n+]1C.COS(=O)(=O)[O-] [2-ethyl-1-methylpyridinium methyl sulfate] | 1.52031
COS(=O)(=O)[O-].C[n+]1ccccc1 [1-methylpyridinium methylsulfate] | 1.51431

As a next step, examine the compound that follows.
// returns reported refractive index for input CCOS(=O)(=O)[O-].CCc1cccc[n+]1CC [1,2-diethylpyridinium ethylsulfate]
1.5146

* * *

measurement-protocol: refractive index (Na D-line) (dimensionless)
reported-conditions: 318.15 K; 101.33 kPa; Liquid; Standard Abbe refractometry
recorded-endpoint: refractive index
One number for each entry.

CCOS(=O)(=O)[O-].CCc1cccc[n+]1CC [1,2-diethylpyridinium ethylsulfate] | 1.50788
CCc1cccc[n+]1C.COS(=O)(=O)[O-] [2-ethyl-1-methylpyridinium methyl sulfate] | 1.51374

Provide reported refractive index for each item, in the same order as listed.
1. COS(=O)(=O)[O-].Cc1ccc[n+](C)c1 [1,3-dimethylpyridinium methyl sulfate]
2. COS(=O)(=O)[O-].C[n+]1ccccc1 [1-methylpyridinium methylsulfate]

1. 1.5077
2. 1.50764

* * *

reported-conditions: 303.15 K; 101.33 kPa; Liquid; Sing-around technique in a fixed-path interferometer
Numbers after ± are expanded uncertainties.
Task for the reader: assign each of the following molecules its reported speed of sound.

Recorded results for 3 molecules are shown here.
CCOS(=O)(=O)[O-].CCc1cccc[n+]1CC [1,2-diethylpyridinium ethylsulfate] | 1731.3 ± 4.5 m/s
CCc1cccc[n+]1C.COS(=O)(=O)[O-] [2-ethyl-1-methylpyridinium methyl sulfate] | 1842.4 ± 4.5 m/s
COS(=O)(=O)[O-].C[n+]1ccccc1 [1-methylpyridinium methylsulfate] | 1864.4 ± 4.5 m/s

// returns reported speed of sound for input COS(=O)(=O)[O-].Cc1ccc[n+](C)c1 [1,3-dimethylpyridinium methyl sulfate]
1809.7 ± 4.5 m/s

* * *

reported-conditions: 343.15 K; 101.33 kPa; Liquid; Capillary tube (Ostwald / Ubbelohde) method
Task for the reader: assign each of the following compounds its reported viscosity.
Give bare numbers, in mPa·s.

Recorded results for 3 compounds are shown here.
CCOS(=O)(=O)[O-].CCc1cccc[n+]1CC [1,2-diethylpyridinium ethylsulfate] | 38.12
COS(=O)(=O)[O-].C[n+]1ccccc1 [1-methylpyridinium methylsulfate] | 22.77
COS(=O)(=O)[O-].Cc1ccc[n+](C)c1 [1,3-dimethylpyridinium methyl sulfate] | 21.15

// returns reported viscosity for input CCc1cccc[n+]1C.COS(=O)(=O)[O-] [2-ethyl-1-methylpyridinium methyl sulfate]
437

* * *

reported-conditions: 343.15 K; 101.33 kPa; Liquid; Vibrating tube method
recorded-endpoint: mass density (kg/m3)
Answers are plain numbers, in kg/m3.

Provide reported mass density for each item, in the same order as listed.
1. COS(=O)(=O)[O-].C[n+]1ccccc1 [1-methylpyridinium methylsulfate]
2. CCOS(=O)(=O)[O-].CCc1cccc[n+]1CC [1,2-diethylpyridinium ethylsulfate]
3. CCc1cccc[n+]1C.COS(=O)(=O)[O-] [2-ethyl-1-methylpyridinium methyl sulfate]

1: 1314.82; 2: 1190.3; 3: 1254

// returns reported mass density for input COS(=O)(=O)[O-].Cc1ccc[n+](C)c1 [1,3-dimethylpyridinium methyl sulfate]
1272.55

* * *

Task for the reader: assign each of the following compounds its reported mass density.
reported-conditions: 303.15 K; 101.33 kPa; Liquid; Vibrating tube method
Numbers only, in kg/m3.

Recorded results for 3 compounds are shown here.
COS(=O)(=O)[O-].C[n+]1ccccc1 [1-methylpyridinium methylsulfate] | 1341.44
CCOS(=O)(=O)[O-].CCc1cccc[n+]1CC [1,2-diethylpyridinium ethylsulfate] | 1217
COS(=O)(=O)[O-].Cc1ccc[n+](C)c1 [1,3-dimethylpyridinium methyl sulfate] | 1299.14

As a next step, examine the compound that follows.
// returns reported mass density for input CCc1cccc[n+]1C.COS(=O)(=O)[O-] [2-ethyl-1-methylpyridinium methyl sulfate]
1281.3

Values compiled from the NIST ThermoML archive (doi:10.1016/j.jct.2010.05.011).
